Target: T1, ZFP SBS#736 (synthetic, UniProt P08047)
T1 chain: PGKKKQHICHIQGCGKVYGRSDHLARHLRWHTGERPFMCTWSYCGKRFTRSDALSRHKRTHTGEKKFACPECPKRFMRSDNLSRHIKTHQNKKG
Assay: EMSA
Conditions: tags: MBP fusion
Measurement Type: pKd
The meaning of pKd here: minus log10 of the concentration in molar units.

Noted for GAGGTGGGGA (dsDNA) DNA 1: GAGGTGGGGA DNA 2: TCCCCACCTC : its pKd reads 9.33
